Values from ChEMBL document CHEMBL1127340

target: Sigma 2 receptor; test: Binding affinity towards sigma 2 receptor was determined in rat liver membrane using [3H]DTG as radioligand in presence of dextrallorphan
pKi: −log10 of the molar value.
A collection of compounds and their measured pKi
measurementType: pKi

# structureSmilesString, numericReadout
measured = [
    ("CN(CCc1ccc(Cl)c(Cl)c1)CCN(C)CCN1CCCC1", 7.84),
    ("CN(CCc1ccc(Cl)c(Cl)c1)CCN1CCCC1", 8.09),
    ("CN(CCCN(C)CCc1ccc(Cl)c(Cl)c1)CCCN1CCCC1", 7.83),
]

----------
target: Sigma 2 receptor; assay: Binding affinity towards sigma 2 receptor was determined in rat liver membrane using [3H]DTG as radioligand in presence of dextrallorphan
# maps each entry to its Ki

# structureSmilesString, Ki
records = [
    ("CN(CCCCN1CCCC1)CCCN(C)CCc1ccc(Cl)c(Cl)c1", "152 nM"),
    ("CN(CCN(C)Cc1ccc(Cl)c(Cl)c1)CCN1CCCC1", "12.1 nM"),
    ("CN(CCCCN(C)CCc1ccc(Cl)c(Cl)c1)CCCCN1CCCC1", "115 nM"),
    ("CN(CCc1ccc(Cl)c(Cl)c1)CCN(C)CCN(C)CCN1CCCC1", "53.6 nM"),
    ("NCCN(CCc1ccc(Cl)c(Cl)c1)CCN1CCCC1", "135 nM"),
    ("Clc1ccc(CCNCCNCCN2CCCC2)cc1Cl", "111 nM"),
    ("NCCNCCNCCc1ccc(Cl)c(Cl)c1", "537 nM"),
    ("CN(CCc1ccc(Cl)c(Cl)c1)CCN(C)CCN(C)CCN(C)CCN1CCCC1", "162 nM"),
    ("CN(CCCN(C)Cc1ccc(Cl)c(Cl)c1)CCN1CCCC1", "52.6 nM"),
    ("Clc1ccc(CCN2CCCC2)cc1Cl", "7700 nM"),
    ("NCCNCCc1ccc(Cl)c(Cl)c1", "2360 nM"),
    ("CN(CCCN1CCCC1)CCN(C)Cc1ccc(Cl)c(Cl)c1", "183 nM"),
]
